System: ACHN
Experiment: NCI tumour cell line growth inhibition, 48 h
Activity calls are given as the source filed them. No stated cut-off is given here; in the data, active = GI50 up to about 1.1 µM and inactive = higher.
Give GI50 for every item shown.

Would you mind telling me what GI50 value was observed for O=C1C2=C(c3ccccc31)C(c1ccccc1)N1C(=O)CSC1=N2 (stereo not given) ?
> 79.4 µM (inactive)

Would you mind telling me what GI50 value was observed for COc1cc([C@@H]2c3cc4c(cc3[C@@H](OC3OC5COC(C)OC5C(OC(=O)CN5CCN(C)CC5)C3OC(=O)CN3CCN(C)CC3)C3COC(=O)[C@@H]32)OCO4)cc(OC)c1OC(=O)CN1CCN(C)CC1 (stereo not given in full) ?
54.5 µM (inactive)

Would you mind telling me what GI50 value was observed for Clc1ccc(C2c3ccccc3-c3nc4ccccc4n32)cc1 (stereo not given) ?
23 µM (inactive)

Would you mind telling me what GI50 value was observed for `COC(=O)CN1Cc2cc(C)cc(c2O)CN(CC(=O)OC)Cc2cc(C)cc(c2O)CN(CC(=O)OC)Cc2cc(C)cc(c2O)CN(CC(=O)OC)Cc2cc(C)cc(c2O)C1` ?
11.5 µM (inactive)

Would you mind telling me what GI50 value was observed for `COC(=O)NN=C1C(C)(C)C(=NNC(=O)OC)C1(C)C` ?
> 100 µM (inactive)

---

System: CCRF-CEM
Experiment: NCI tumour cell line growth inhibition, 48 h
Active and inactive are the calls of the source. Cut-off read from the data, not from the text of the source: active = GI50 up to about 1.1 µM and inactive = higher.
Return exactly one item of active, inactive

Which outcome did this test record for the compound O=C(c1ccccc1)C(c1ccccc1)C1(O)C(=O)Nc2ccc(Br)cc21 (stereo not given) ?
inactive

Which outcome did this test record for the compound `Cc1ccc(S(=O)(=O)n2cc(C#N)c(C#N)c2)cc1` ?
inactive

Which outcome did this test record for the compound `COc1ccc(-c2c3c(nc4nc(SC)nc(SC)c24)CCCC3)cc1OC` ?
inactive

Which outcome did this test record for the compound COc1cc2c(c(OC(C)=O)c1OC(C)=O)-c1ccc(SC)c(=O)cc1C(NC(C)=O)CC2 (stereo not given) ?
active

Which outcome did this test record for the compound CC1=NC(C)(COC(=O)C2(C)NC(C)(CO)CO2)COC1=O (stereo not given) ?
inactive

---

Tested on: RPMI-8226
Experiment: NCI tumour cell line growth inhibition, 48 h
Active and inactive are the calls of the source. Rule as the data show it: active = GI50 up to about 1.1 µM and inactive = higher.
Give GI50 for every item shown.

Recorded GI50 for `CN(C)c1ccc(/N=N\c2cccc3ccoc23)cc1` with RPMI-8226, please?
52.2 µM (inactive)

Recorded GI50 for `COc1ccc(/C=C(\C(=O)OCC(C)C)c2ccc(OC)c(OC)c2)cc1OC` with RPMI-8226, please?
> 100 µM (inactive)

Recorded GI50 for `CCN(CC)CCSc1c2ccccc2nc2c(OC)ccc(OC)c12` with RPMI-8226, please?
2.23 µM (inactive)

Recorded GI50 for `O=C(CSc1nc2ccccc2c(=O)n1-c1ccccc1)N/N=C1\C(=O)Nc2ccc(F)cc21` with RPMI-8226, please?
2.3 µM (inactive)

Recorded GI50 for `COc1ccc2c(c1)nc1n2C(N)=Nc2ccccc2S1` with RPMI-8226, please?
8.73 µM (inactive)

Recorded GI50 for `Cc1nc(O)c2c3c(sc2n1)CCCC3` with RPMI-8226, please?
84.9 µM (inactive)

Recorded GI50 for `O=C1Nc2ccccc2/C1=N/NC(=S)Nc1ccc([N+](=O)[O-])cc1` with RPMI-8226, please?
13.5 µM (inactive)

Recorded GI50 for `COc1ccc2nc(NC(=O)/C(C#N)=C/c3ccccc3)sc2c1` with RPMI-8226, please?
23.4 µM (inactive)

Recorded GI50 for `NCCNS(=O)(=O)c1ccc(N)cc1` with RPMI-8226, please?
> 100 µM (inactive)

Recorded GI50 for COc1ccc(/N=N/c2c(C)c(C#N)c(=S)n(C3OC(CO)C(O)C(O)C3O)c2-c2ccccc2)cc1 (configuration not stated) with RPMI-8226, please?
36.1 µM (inactive)

Recorded GI50 for `O=C(O)c1ccccc1NC(=S)c1ccccc1` with RPMI-8226, please?
28.2 µM (inactive)

Recorded GI50 for CCOC(=O)CC(=O)N(c1ccc(OC)cc1)C(C(=O)OC)c1ccccc1 (configuration not stated) with RPMI-8226, please?
> 100 µM (inactive)

Recorded GI50 for `COc1ccc(CNc2nc(NCc3ccc(OC)cc3)nc(NC3CCCC3)n2)cc1` with RPMI-8226, please?
2.24 µM (inactive)

Recorded GI50 for `Cc1cc(=O)oc2cc(OCc3nc4ccccc4c(=O)[nH]3)ccc12` with RPMI-8226, please?
> 100 µM (inactive)

Recorded GI50 for `CC(=O)OC[C@@]12CC[C@H]3C(C)(C)CCC[C@]3(C)[C@H]1C[C@@H](C1=CC(=O)O[C@H]1O)O2` with RPMI-8226, please?
2.15 µM (inactive)

Recorded GI50 for `FC(F)(F)c1ccccc1/C=N/C12CC3CC(CC(C3)C1)C2` with RPMI-8226, please?
> 100 µM (inactive)

Recorded GI50 for `O=c1[nH]c(=O)c2c3n(cc2[nH]1)CCCCC3` with RPMI-8226, please?
> 100 µM (inactive)

Recorded GI50 for `CC(C)(C)C(=O)Nc1cccc2oc(-c3ccccc3)cc12` with RPMI-8226, please?
> 100 µM (inactive)

Recorded GI50 for `C[C@@H]1C[C@@]2(O[C@@H]2C)C(=O)O[C@@H]2CCN3CC=C(COC(=O)[C@]1(C)O)[C@H]23` with RPMI-8226, please?
> 100 µM (inactive)

Recorded GI50 for `CC(C)(C)[Si](C)(C)OC[C@H](/C=C\CCCC(=O)O)NC1(c2ccccc2)c2ccccc2-c2ccccc21` with RPMI-8226, please?
4.17 µM (inactive)

Recorded GI50 for `Cc1ccc2nc(NC(=O)C(=O)C3C(=O)NC(=S)NC3=O)sc2c1` with RPMI-8226, please?
> 100 µM (inactive)

Recorded GI50 for `Cc1ccc(S(=O)(=O)Oc2coc(CO)cc2=O)cc1` with RPMI-8226, please?
3.97 µM (inactive)

---

Give GI50 for every item shown.
Test system: COLO 205
Assay: NCI tumour cell line growth inhibition, 48 h
Activity calls are given as the source filed them. Cut-off read from the data, not from the text of the source: active = GI50 up to about 1.1 µM and inactive = higher.

Would you mind telling me what GI50 value was observed for `O=C(O)c1ccccc1NC(=S)c1ccccc1` ?
39.1 µM (inactive)

Would you mind telling me what GI50 value was observed for `O=C(Nc1ccccc1)OCc1nc2c([nH]1)C(=O)C=CC2=O` ?
1.9 µM (inactive)

Would you mind telling me what GI50 value was observed for `Clc1ccc(C[P+]2(c3ccccc3)CCCCC2)cc1.[O-][Cl+3]([O-])([O-])[O-]` ?
17.9 µM (inactive)

Would you mind telling me what GI50 value was observed for `C[C@H]1C2Cc3cc(O)ccc3[C@@]1(C)CCN2CCc1ccc(N)cc1` ?
28.6 µM (inactive)

Would you mind telling me what GI50 value was observed for `N=C(N)SCCc1ccccn1` ?
> 100 µM (inactive)

Would you mind telling me what GI50 value was observed for CS(=O)(=O)Nc1ccc2c(c1)N(S(C)(=O)=O)CC2COS(C)(=O)=O (stereo unspecified) ?
> 100 µM (inactive)

---

Tested on: SR
Test: NCI tumour cell line growth inhibition, 48 h
Activity calls are given as the source filed them. Cut-off read from the data, not from the text of the source: active = GI50 up to about 1.1 µM and inactive = higher. Non-standard residues stand in square brackets, D forms with d. Residues, ends and D or L forms follow the SMILES beside them. *: point of attachment. Bn2Val = CC(C)[C@@H](C(=O)*)N(Cc1ccccc1)Cc1ccccc1; NMeV = CN[C@H](C(=O)O)C(C)C; X32 = COc1ccc(CN*)c(OC)c1; dNMeA = CN[C@H](C)C(=O)O
Return exactly one item of active, inactive

Which outcome did this test record for the compound `O=C(CSc1nc2ccccc2c(=O)n1-c1ccccc1)N/N=C1\C(=O)Nc2ccc(F)cc21` ?
inactive

Which outcome did this test record for the compound `CCOC(=O)c1nc2cc(C(F)(F)F)ccc2nc1Nc1cc(OC)c(OC)c(OC)c1` ?
inactive

Which outcome did this test record for the compound O=S(=O)(c1cccc(C(F)(F)F)c1)N1c2ccccc2-n2cccc2C1c1cccnc1 (stereo unspecified) ?
inactive

Which outcome did this test record for the compound `CCOC(=O)C[C@@]12CCCN[C@]1(C)CCc1ccccc12` ?
inactive

Which outcome did this test record for the compound COc1ccc(CNC(=O)[C@@H]2CCCN2C(=O)[C@@H](C)N(C)C(=O)[C@H](C(C)C)N(C)C(=O)[C@@H](NC(=O)[C@H](C(C)C)N(Cc2ccccc2)Cc2ccccc2)C(C)C)c(OC)c1 (Bn2Val-V[NMeV][dNMeA]P-X32) ?
inactive

Which outcome did this test record for the compound `OC[C@@H](O)[C@H]1NC[C@@H](O)[C@H]1O` ?
inactive

Which outcome did this test record for the compound `ClC(Cl)=C1C(=C(Cl)Cl)C(Cl)(Cl)C1(Cl)Cl` ?
active

Which outcome did this test record for the compound CCOP(=O)(CCC(O)CNc1nc(N)nc(Cl)c1/N=N/c1ccc(Cl)cc1)OCC (stereo unspecified) ?
inactive

Which outcome did this test record for the compound `COc1ccc(/C=C/c2ccnc3ccccc23)cc1` ?
inactive

Which outcome did this test record for the compound `CC(C)/C(Cl)=N/OC(NC(=O)Nc1ccc(Cl)c(Cl)c1)(C(F)(F)F)C(F)(F)F` ?
inactive

Which outcome did this test record for the compound `CCOC(=O)c1c(NS(=O)(=O)c2ccccc2)sc2c1CCCC2` ?
inactive

Which outcome did this test record for the compound Cc1c(N)nc([C@H](CC(N)=O)NC[C@H](N)C(N)=O)nc1C(=O)N[C@H](C(=O)N[C@H](C)[C@@H](O)CC(=O)N[C@H](C(=O)NC(O[C@@H]1O[C@@H](C)[C@@H](N)[C@@H](O)[C@H]1O)C(O)c1nc(-c2nc(C(=O)NCCC[S+](C)C)cs2)cs1)[C@@H](C)O)[C@H](O[C@@H]1O[C@@H](CO)[C@@H](O)[C@H](O)[C@@H]1O[C@H]1O[C@H](CO)[C@@H](O)[C@H](OC(N)=O)[C@@H]1O)c1c[nH]cn1 (stereo partly specified) ?
active

Which outcome did this test record for the compound `Oc1ccc(O)c(Cc2ccccc2)c1` ?
inactive

Which outcome did this test record for the compound `Cc1cc(NS(=O)(=O)c2ccc(NC(=O)c3cccc4c(Nc5ccc(S(=O)(=O)N=C(N)N)cc5)c5ccccc5nc34)cc2)no1` ?
inactive

Which outcome did this test record for the compound `Cc1c(CNc2ccc(Cl)c(Cl)c2Cl)cnc2nc(N)nc(N)c12` ?
active

Which outcome did this test record for the compound `Cc1n[nH]c(=O)n1C1CC1` ?
inactive
